# method: Substrate stability over incubation in sodium formate buffer
# Type: physicochemical
# condition_summary: 24 hour incubation at 37° C. in sodium formate buffer; read-out: recovery of the substrates (stability)
measurement_label: recovery at 24 h

[2H]c1c([2H])c([2H])c(C(=O)NCCCCN(CCC(=O)Nc2ccc(OC3OC(CO)C(O)C(O)C3NC(C)=O)cc2)C(=O)OC(C)(C)C)c([2H])c1[2H] (centres unmarked) [HexA/B substrate] :: > 100%
CC(=O)NC1C(Oc2ccc(NC(=O)CCN(CCCCNC(=O)c3ccccc3)C(=O)OC(C)(C)C)cc2)OC(COS(=O)(=O)O)C(O)C1O (centres unmarked) [HexA substrate] :: > 100%
